Origin of values: PubChem BioAssay (NCATS)

# SYSTEM_UNDER_TEST: Cytochrome P450 3A4 (Homo sapiens) (UniProt P08684)
# Sequence (P08684 whole entry, looked up): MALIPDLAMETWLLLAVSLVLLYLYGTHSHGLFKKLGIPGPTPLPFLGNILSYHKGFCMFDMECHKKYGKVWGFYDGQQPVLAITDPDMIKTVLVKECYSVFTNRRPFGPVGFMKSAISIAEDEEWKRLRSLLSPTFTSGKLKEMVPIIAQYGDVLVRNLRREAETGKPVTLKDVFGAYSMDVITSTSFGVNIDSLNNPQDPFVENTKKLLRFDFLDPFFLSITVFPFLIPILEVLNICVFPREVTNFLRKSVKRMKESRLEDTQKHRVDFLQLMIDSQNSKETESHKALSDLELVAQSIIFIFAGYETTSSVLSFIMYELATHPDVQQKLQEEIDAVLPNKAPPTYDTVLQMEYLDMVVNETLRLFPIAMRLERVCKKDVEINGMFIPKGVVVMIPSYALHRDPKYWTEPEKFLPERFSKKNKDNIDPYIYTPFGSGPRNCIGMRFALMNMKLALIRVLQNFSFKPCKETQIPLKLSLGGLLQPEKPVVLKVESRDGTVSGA
# EXPERIMENT_DESCRIPTION: qHTS Assay for Activators of Cytochrome P450 3A4 (AID 885); also: nearly all actives have a fitted effect of over 65% in size; also: potency is read from the fitted curve at half-maximal effect
# CONDITION_CONTEXT: recombinant CYP3A4, Luciferin-PPXE luminescence, 60 min; series mostly up to 57.1 µM
Calls of active or inactive are those of the source. Calls follow the shape of the dose curve; as a rule, active = well fitted activation curve with a large enough effect; inconclusive = small, poorly fitted or top-dose-only effect; inactive = no such curve, though single readings can be large or run the other way.
PROPERTY: Potency

Some compounds with recorded Potency:
- COMPOUND: "Clc1ccc2c(c1)C(N1CCNCC1)=Nc1ccccc1O2"
  Potency: "inactive"
- COMPOUND: "CN1CCN2c3ccccc3Cc3ccccc3C2C1 (stereo not given)"
  Potency: "inactive"
- COMPOUND: "C[C@](N)(Cc1ccc(O)c(O)c1)C(=O)O"
  Potency: "inactive"
- COMPOUND: "CN(C)CCCN1c2ccccc2CCc2ccc(Cl)cc21"
  Potency: "inactive"

Consider the record given below.
Input COc1cc2nc(N3CCN(C(=O)c4ccco4)CC3)nc(N)c2cc1OC , output reported Potency.
12.6 µM (active)

====

# EXPERIMENT_DESCRIPTION: Quantitative High-Throughput drug screen in 47 multiple myeloma cell lines against the NCATS MIPE library collection: OPM1_PLB cell viability assay (AID 1918989); also: nearly all actives have a fitted effect of over 40% in size
# CONDITION_CONTEXT: CellTiter-Glo, 48 h; series mostly up to 45.8 µM
Inconclusive results are not listed. Active and inactive are the calls of the source. The call rests on the fitted dose curve; in most records, active means well fitted cell-killing curve with a large enough effect; inconclusive means small, poorly fitted or top-dose-only effect, or effect the other way; inactive means no such curve, though single readings can be large or run the other way.
Can you answer with just one of these options? Y (active), N (inactive)

Examples from the recorded data:
- COMPOUND: "COc1cc2c(c(OC)c1OC)-c1ccc(OC)c(=O)cc1[C@@H](NC(C)=O)CC2"
  LABEL_VALUE: "N"
- COMPOUND: "CC(C)NCC(O)COc1ccc(CCOCC2CC2)cc1 (stereo not drawn)"
  LABEL_VALUE: "N"
- COMPOUND: "O=c1c(-c2ccc(O)cc2)coc2cc(O)cc(O)c12"
  LABEL_VALUE: "N"
- COMPOUND: "COc1ccc2c(c1)c(CC(=O)O)c(C)n2C(=O)c1ccc(Cl)cc1"
  LABEL_VALUE: "N"

So what was the verdict on NC(CO)C(=O)NNCc1ccc(O)c(O)c1O (stereo not drawn) in this test?
N

Tell me the assay call for CC(CCc1ccc(O)cc1)NCCc1ccc(O)c(O)c1 (stereo not drawn) please.
Y

Assay result, entry CN(C)C(=O)C(CCN1CCC(O)(c2ccc(Cl)cc2)CC1)(c1ccccc1)c1ccccc1 — outcome?
Y

====

# EXPERIMENT_DESCRIPTION: qHTS of Trypanosoma Brucei Inhibitors: LOPAC Validation (AID 624147)
# CONDITION_CONTEXT: purified enzyme assay, luminescence, 45 min; series mostly up to 57.5 µM
Results filed as inconclusive are left out. The source made the active and inactive calls. Calls follow the shape of the dose curve; as a rule, active = well fitted inhibition curve with a large enough effect; inconclusive = small, poorly fitted or top-dose-only effect; inactive = flat fitted curve, though single readings scatter.
PROPERTY: outcome

Worked cases, answers included:
- MOLECULE: "COc1ccc(C2CNC(=O)C2)cc1OC1CCCC1 (stereo not drawn)"
  outcome: "inactive"
- MOLECULE: "CN1CCN(CCCN2c3ccccc3Sc3ccc(Cl)cc32)CC1"
  outcome: "inactive"
- MOLECULE: "Cc1cn([C@H]2C=C[C@@H](CO)O2)c(=O)[nH]c1=O"
  outcome: "inactive"
- MOLECULE: "O=C(C1CCCCC1)N1CC(=O)N2CCc3ccccc3C2C1 (stereo not drawn)"
  outcome: "inactive"

Using known records, supply outcome for Nc1nnc(-c2cccc(Cl)c2Cl)c(N)n1
inactive

Quickly give me recorded outcome for N[C@@H](Cc1c[nH]c2ccc(O)cc12)C(=O)O
inactive

Assign outcome to the following record: COc1cc2nc(N(C)CCCNC(=O)C3CCCO3)nc(N)c2cc1OC (stereo not drawn)
inactive

Read the entry COc1ccc2[nH]cc(CCNC(C)=O)c2c1 and write its reported outcome.
inactive

Please report outcome for the following molecule: NC(=O)NO
inactive

Hello, please tell me recorded outcome for this one: CCOC(=O)c1ncn2c1CN(C)C(=O)c1cc(F)ccc1-2
inactive

Tell me measured outcome for Clc1ccc(C(c2ccccc2Cl)C(Cl)Cl)cc1 (stereo not drawn) please.
inactive

Determine from records and report outcome for NC(=O)OCC(COC(N)=O)c1ccccc1
inactive

Indicate its recorded outcome; the molecule in question is Nc1c2c(nc3ccccc13)CCCC2
inactive
